method-description: soluble on expression in E. coli; label from the status in PepcDB or PDB records
property: soluble on expression in E. coli

Known soluble on expression in E. coli results, listed for orientation:
Input: # soluble on expression in E. coli lookup, item `KTAFTAEVLAQSFSGEVQKLSSLVLPAEVIIAQSSIPGEGLGIFSKTWIKAGTEMGPFTGRVIAPEHVDICKNNNLMWEVFNEDGTVRYFIDASQEDHRSWMTYIKCARNEQEQNLEVVQIGTSIFYKAIEMIPPDQELLVWYGNSHNTFLGIPGVPGLEEDQKKNKHED`
Output: soluble

Input: # soluble on expression in E. coli lookup, item `EMETYVNKLHEGSTYTAAVQYNVLEKDDDPASLTIWVPMFQSSMPADLLIKELANVNILVKQISTPKGPSLRVMINSRSAVLAQMPSKFTICANVSLDDRSKLAYDVTTPCEIKACSLTCLKSKNMLTTVKDLTMKTLNPTHDIIALCEFENIVTSKKVIIPTYLRSISVRNKDLNTLENITTTEFKNAITNAKIIPYSGLLLVITVTDNKGAFKYIKPQSQFIVDLGAYLEKESIYYVTTNWKHTATRFAIKPRED`
Output: soluble

Input: # soluble on expression in E. coli lookup, item `MSLLAYTYIEHGKFELREKPEPKITDARDAIVRVTLGSICTSDLHIKHGSVPRAVPGITVGHEMVGVVEEVGAEVTSVRPGDRVTVNVETFCGECFFCHHGYVNNCTDPNGGWALGCRIDGGQAEYVRVPYADQGLNRIPDTVSDEQALFVGDVLATGFWATRISEITEKDTILLIGAGPTGICTLLCSMLKNPKRIIVCEKSPERIQFVREHYPDVLITTPENCKEFVLQNSDHSGADVVLEVAGTEDSFRMAWDCARPNAIVTIVALYDKPLLFPLPEMYGKNLTFKTGGVDGCDCAEILSLIEEGKIDTTPLITHRCSLNEIEEAYRIFENKLDGVIKVAIVCQTESEGHHHHHH`
Output: soluble

Input: # soluble on expression in E. coli lookup, item `MEGGSITPGEDKPEIQSPIPPNQIFILSGQSNMAGRGGVFKDHHNNRWVWDKILPPECAPNSSILRLSADLRWEEAHEPLHVDIDTGKVCGVGPGMAFANAVKNRLETDSAVIGLVPCASGGTAIKEWERGSHLYERMVKRTEESRKCGGEIKAVLWYQGESDVLDIHDAESYGNNMDRLIKNLRHDLNLPSLPIIQVAIASGGGYIDKVREAQLGLKLSNVVCVDAKGLPLKSDNLHLTTEAQVQLGLSLAQAYLSNFC`
Output: soluble

Input: # soluble on expression in E. coli lookup, item `AADITVASYNIHKGVGTDRRRDLRRTAAVIAELDADLVALQEADRRFGDRAGLLDLEHLKDETGLVPVKVEGRGRAHGWHGNLLLVRDAEVEEVQKIVLPSFEPRGALMIDMMIRGRPLRVIAAHLGLLPASRAAQTRHLLERIEASTPRPTLLMGDLNEWRGTGAAMGHLARHFTGGVMVRSFPSRFPILALDRLMTCKHGQLHDVSTHDTPLARRASDHLPIKARLHLP`
Output: not soluble

Further cases:
Input: # soluble on expression in E. coli lookup, item `MGSDKIHHHHHHMKFSINRQKTIEIIGEYSNILKDNPVKPSLAGLFIQAKNNQVVFKGANTEIELIRYANCEIESEGQVLIKPALLLEYIKLLEGENINFEKKDGYLIVNNAEFSILDDNTYPELTEIIPIVIASENTVKFTMSLEKVKFLTNSSASTDTLFNSIKMIFKDNVLELVSTDSFRLIYMKKELNNMINKDVLVPGDSIAVLYKIFKDLDEEFSLAASDDKLIVTWKDAYFTCKLLSLSFPDFRPLINNTNHDKRFEFNRDELNLALKKVISVTKNSSDSKNVATFNFKGNQLLISGVSANAKINQKVNMIKTGEDLKLGMNCKYIKDFIDNVDKNIIIDATNSSSMLRFMEEGNENYIYLIMPVNIRV`
Output: not soluble

* * *

method-description: soluble on expression in E. coli; label from the status in PepcDB or PDB records
property: soluble on expression in E. coli

Input: # soluble on expression in E. coli lookup, item `GVSVDARIAKNVEEFLAAAQEINPSYHLISGYRSVAYQTELYNSYVQQEMADDPTLTESQAEKKVQTYSQPPGASEHQTGLAIDMSTVDSLDEADPATVAKVKKIAPKYGFVLRFPDGKTSSTGVGYEDWHFRYVGKESAEYMTEHNLTLEEYLVLLKEKTK`
Output: not soluble

Input: # soluble on expression in E. coli lookup, item `MRSGQMEIIIGWLYPQLMSTYGDRGNVIIIERRAQWREYNVTVLPLDQNSTPDDLKSVDVIVGGGAQDRQQEIVMRDLQGAKADAMREKIENGTPGVFTCGSPQLLGHYYEPGFGQRIEGLGILDLVSIHPGENTKRCIGNLVIEVTASRFAQELEAMTGTKPYLVGFENHGGRTKLGKVEALGRVVYGLGNNGEDGTEGAFYQNAIATYSHGPLLPKNPFVADWLIQTALRLKYQEEIQLSPLNDTLAMQGREAMFKRLKVNLPLAGRI`
Output: not soluble

Input: # soluble on expression in E. coli lookup, item `MSNLYTELKNEWSKHAPNLTHCSRLLDGFKLELVRSNFGTIQTASSSKQKDQLIKSREMLEIAVEHSITIKDYAAFERYMAQLNTYYYDYDKYLESSKHMYKFMGLNLLYMLATNRLADFHIELERLPTALLLHDSFIQPVLALENYYMEGRYNKILQAKKSMPSEIYSNFMDILVNTAREEIASCMEKSYLKMAPKLAAQRLGLRPGSKELFELATKRQWCLDEEGNYDYAGLHTRPMEKVPAKDIATHNLTYAQELEKIVLEHHHHHH`
Output: not soluble

* * *

method-description: soluble on expression in E. coli; label from the status in PepcDB or PDB records
property: soluble on expression in E. coli

Input: # soluble on expression in E. coli lookup, item `MPKWGNINERRNQLHEVIRLSGMNLIIDDTDHPLIIKVASIQSARMQVYFIDNDDYFQNRLQTADENGVEYDDNDSRAIFYARGVLETVKKLRWCPDVIHCHGWMTALAPLYIKKAYKDEPSFRDAKVVFSVYEDDFKNTLSEDFATKLMLKGITKKDLAGLKEPVDYAALCKLAVDYSDGIIQNSAKVDESIIEYARQSGKLVLDYQDPENYANACNEFYDQVWETTTNKEEELEHHHHHH`
Output: soluble

Input: # soluble on expression in E. coli lookup, item `MARKEAKMLYIFDLGNVIVDIDFNRVLGAWSDLTRIPLASLKKSFHMGEAFHQHERGEISDEAFAEALCHEMALPLSYEQFSHGWQAVFVALRPEVIAIMHKLREQGHRVVVLSNTNRLHTTFWPEEYPEIRDAADHIYLSQDLGMRKPEARIYQHVLQAEGFSPSDTVFFDDNADNIEGANQLGITSILVKDKTTIPDYFAKVLC`
Output: soluble

Input: # soluble on expression in E. coli lookup, item `MALSHSVKERTISENSLIILLQGLQGQITTVDLRDESVARGRIDNVDAFMNIRLANVTYTDRWGHQVELDDLFVTGRNVRYVHIPDGVDITATIEQQLQIIHRVRNFGGKGQGRREFPSKRP`
Output: soluble

* * *

method-description: soluble on expression in E. coli; label from the status in PepcDB or PDB records
property: soluble on expression in E. coli

Known soluble on expression in E. coli results, listed for orientation:
Input: # soluble on expression in E. coli lookup, item `MISVNKVFYAHSERFQMQNMNVHIKAGEVVSLIGPNGSGKSTLLRLMARLLKQSEGDIVLDGKSIHTMKSADVAKQLAMLPQMHDHQLDLTVKELIEFGRGPHKSWRGRLNKEDEEIVDWALSVTNLEGYEYRLLQSLSGGERQRAWIAMTLAQRTNVLLLDEPTTFLDIVHQLEVMELVKRLNEEFGMTIIMVLHDINQAAQYSDRLLVLKRGKLQYDGVPEEVLCHEMFQHIFGIEVDIFQGSEKPFFTPKRISKKGGAKCEQKNVLPLS`
Output: not soluble

Input: # soluble on expression in E. coli lookup, item `MGSDKIHHHHHHAFCLDNGLGRTPPMGWMSWTAFYCEIDCVKHPTGCINEQLYKDMADQLVSGGYDKVGYKSVHIDDCWSEMERDSHGILVANKTRFPSGMKALAKYMHDRGLKFGIYEDYGTKTCGGYPGSYKHEKVDAQTFAAWDVDYLKLDGCNIDQAMMPIGYPLFEKELNETGRPIMYSCSW`
Output: not soluble

Input: # soluble on expression in E. coli lookup, item `MKFDFPQVDLPCEILAWNDVTEDILNIYKQSCRLKAGIFAICTEGKMTATINLIDYEIKPNDLITLLPGTIIQFRERTEKVRLCFAGFSSECVERINLIKSMVSSFSKITECPIVELQEDIASYLIDYFSLLARVTCDEKLSLPSEMTEVSLRSILTAVGLIYQRYSSKNHNTNRKEEICRELVGLVTEHYTEERRAQFYADKLGISLQHLSTTVKQVTGRNVLDVIAYVVIIDAKAKLKSSNMTIQEIAYSLNFPSASFFGKYFRRYVGMSPLEFRNS`
Output: not soluble

Input: # soluble on expression in E. coli lookup, item `MAHHHHHHSLIKSMTGFSRVEKVSGPYQFRVEMKSLNSKGLNIINQLPGYLSMKEIELNNLVQEYVSRGKVQTRVQVKFLEPPKVLEIDKNVVRAYYSMLDEIVGELSLPEPVKLSDLLNFREVFRIELSDEEIENIWNHLVPILREALEKLVEERKKEGQKIGADLKRILEDLSSRVEEIEKISDQLPALYREKIKEEVEKILPQDVSVKEDILENHVAFMATKADIREEITRLRSHIKRALELIESDEPVGMNLDFLGQEMLRELNTILSKSISGEITSLALEGKVLVSQFREQIQNVEEG`
Output: soluble

Further cases:
Input: # soluble on expression in E. coli lookup, item `MSLTLKLFELVGADAGRPFSPFVWRTRMALAHKGLTAETIPWRFTDKAAIAPYGSEKVPVLLDGDKVVADSWAIANYLEDAYPDRPSLFGGDGGRAMARMLNWWGDLAIIGGIFPMIVADIAQRLDPEDAAYFRQSREARLKTTLEEAAASRDRAVQGFRKSLDPLRLTLKTQAFIGGAAPNYADYIVFGGFQWARVVSDFSLLQSDDPVYAWRERLLDAFGGLARATPGYPVEGHHHHHH`
Output: soluble

Input: # soluble on expression in E. coli lookup, item `GGGVMHYTDKAALPADGEAREVAALFDTWNAALATGNPHKVADLYAPDGVLLPTVSNEVRASREQIENYFEMFLTKKPKGVINYRTVRLLDDDSAVDAGVYTFTLTDKNGKKSDVQARYTFVYEKRDGKWLIINHHSSAMPEVDTATATAAVTKAK`
Output: soluble
